# System: MDA-MB-157
# ASSAY_COMMENT: Cell viability assay, MDA-MB-157
# Assay type: cell-based
# DETAILS: Homo sapiens, 72 h; MDA-MB-157, TNBC, 3 days; read-out: Cellular Anti-proliferation activity (IC50)
METRIC: IC50 (nM)

>>> endpoint_value("CC(=O)c1c(C)c2cnc(Nc3ccc(N4CCN(CC(=O)NCCOCCOCCOCCOCCOCCNc5ccc(C(=O)Nc6ncc(C)s6)c(C)c5)CC4)cn3)nc2n(C2CCCC2)c1=O")
151
>>> endpoint_value("CC(=O)c1c(C)c2cnc(Nc3ccc(N4CCN(CC(=O)NCCOCCOCCOCCOCCOCCNc5ccc(C(=O)Nc6nc(C)c(C)s6)c(C)c5)CC4)cn3)nc2n(C2CCCC2)c1=O")
28

----------
Measured inhibition at 0.2 µM accompanies every entry in the list below.
# TARGET_OF_ASSAY: CDK4 (Homo sapiens, UniProt P11802)
# Construct: endogenous in cells; host or cells: Calu-1
# Sequence (P11802 2-303 limits assumed): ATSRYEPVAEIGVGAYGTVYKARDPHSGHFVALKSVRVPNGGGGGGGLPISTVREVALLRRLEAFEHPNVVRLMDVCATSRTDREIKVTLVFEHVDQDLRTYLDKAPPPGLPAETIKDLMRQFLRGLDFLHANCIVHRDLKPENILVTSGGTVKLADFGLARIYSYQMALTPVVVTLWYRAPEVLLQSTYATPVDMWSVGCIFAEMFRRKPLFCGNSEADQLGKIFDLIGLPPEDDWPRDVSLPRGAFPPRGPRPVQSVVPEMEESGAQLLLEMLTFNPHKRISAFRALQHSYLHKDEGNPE
# Sequence (P24385 whole entry partner): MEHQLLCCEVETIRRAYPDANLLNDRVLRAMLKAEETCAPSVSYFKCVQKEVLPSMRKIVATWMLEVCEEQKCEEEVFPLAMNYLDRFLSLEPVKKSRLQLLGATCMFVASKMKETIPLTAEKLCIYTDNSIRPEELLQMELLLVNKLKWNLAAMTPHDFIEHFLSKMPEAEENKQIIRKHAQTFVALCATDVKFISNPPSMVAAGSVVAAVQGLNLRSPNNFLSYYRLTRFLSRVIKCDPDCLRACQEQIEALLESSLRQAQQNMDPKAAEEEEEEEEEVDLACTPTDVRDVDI
# Sequence (Q16531 2-1140 limits assumed, further chain): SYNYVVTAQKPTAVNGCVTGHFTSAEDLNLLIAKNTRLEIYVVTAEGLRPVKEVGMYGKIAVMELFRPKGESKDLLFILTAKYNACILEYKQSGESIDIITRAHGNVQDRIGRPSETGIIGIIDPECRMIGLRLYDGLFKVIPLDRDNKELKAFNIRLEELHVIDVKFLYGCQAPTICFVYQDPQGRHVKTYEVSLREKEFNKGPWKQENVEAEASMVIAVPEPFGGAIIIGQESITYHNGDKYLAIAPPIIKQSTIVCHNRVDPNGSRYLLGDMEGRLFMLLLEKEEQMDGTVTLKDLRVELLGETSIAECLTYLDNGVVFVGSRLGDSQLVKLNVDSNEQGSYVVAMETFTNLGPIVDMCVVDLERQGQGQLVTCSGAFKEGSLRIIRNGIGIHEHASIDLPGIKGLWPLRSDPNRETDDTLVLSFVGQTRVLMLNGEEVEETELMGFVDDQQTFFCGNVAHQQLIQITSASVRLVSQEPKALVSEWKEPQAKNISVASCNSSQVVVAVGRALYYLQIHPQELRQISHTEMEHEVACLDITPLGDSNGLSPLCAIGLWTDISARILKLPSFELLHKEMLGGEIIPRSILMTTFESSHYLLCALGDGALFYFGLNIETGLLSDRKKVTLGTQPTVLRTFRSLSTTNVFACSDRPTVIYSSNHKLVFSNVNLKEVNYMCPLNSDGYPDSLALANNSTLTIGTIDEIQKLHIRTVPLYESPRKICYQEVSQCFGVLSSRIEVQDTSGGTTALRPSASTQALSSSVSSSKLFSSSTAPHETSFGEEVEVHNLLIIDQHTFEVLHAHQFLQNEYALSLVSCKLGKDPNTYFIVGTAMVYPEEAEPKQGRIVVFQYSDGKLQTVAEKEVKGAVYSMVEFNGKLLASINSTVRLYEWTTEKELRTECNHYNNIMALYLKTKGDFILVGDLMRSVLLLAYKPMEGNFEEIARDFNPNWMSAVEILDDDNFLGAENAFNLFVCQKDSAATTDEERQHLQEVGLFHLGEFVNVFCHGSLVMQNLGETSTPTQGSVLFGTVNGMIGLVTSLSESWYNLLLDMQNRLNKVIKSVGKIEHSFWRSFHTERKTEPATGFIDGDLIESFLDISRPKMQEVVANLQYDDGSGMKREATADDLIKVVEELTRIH
# ASSAY_COMMENT: CDK4 percentage degradation in Calu-1 cells (immunoblotting)
# Format: cell-based
# DETAILS: Calu-1, 16 h, read-out: CDK4 Degradation (200 nM)
METRIC: inhibition at 0.2 µM

>>> endpoint_value("CC(=O)c1c(C)c2cnc(Nc3ccc(N4CCN(C(=O)CCOCCOCCOCCOCCC(=O)Nc5ccccc5C(=O)Nc5nc(C)c(C)s5)CC4)cn3)nc2n(C2CCCC2)c1=O [CPD-176]")
"> 80%"
>>> endpoint_value("CC(=O)c1c(C)c2cnc(Nc3ccc(N4CCN(C(=O)CCCCNc5ccc(C)c(C(=O)Nc6nc(C)c(C)s6)c5)CC4)cn3)nc2n(C2CCCC2)c1=O [CPD-108]")
"< 30%"
>>> endpoint_value("CC(=O)c1c(C)c2cnc(Nc3ccc(N4CCN(C(=O)CNc5ccc(C)c(C(=O)Nc6nc(C)c(C)s6)c5)CC4)cn3)nc2n(C2CCCC2)c1=O [CPD-135]")
"< 30%"
>>> endpoint_value("CC(=O)c1c(C)c2cnc(Nc3ccc(N4CCN(CCCCCCCCCCNc5cccc(C(=O)Nc6nc(C)c(C)s6)c5C)CC4)cn3)nc2n(C2CCCC2)c1=O [CPD-078]")
"< 30%"
>>> endpoint_value("CC(=O)c1c(C)c2cnc(Nc3ccc(N4CCN(C(=O)CCCCCNc5ccc(C)c(C(=O)Nc6nc(C)c(C)s6)c5)CC4)cn3)nc2n(C2CCCC2)c1=O [CPD-129]")
"< 30%"
>>> endpoint_value("CC(=O)c1c(C)c2cnc(Nc3ccc(N4CCN(C(=O)CCNc5cccc(C(=O)Nc6nc(C)c(C)s6)c5C)CC4)cn3)nc2n(C2CCCC2)c1=O [CPD-112]")
"< 30%"
>>> endpoint_value("CC(=O)c1c(C)c2cnc(Nc3ccc(N4CCN(C(=O)CCCNc5ccc(C)c(C(=O)Nc6nc(C)c(C)s6)c5)CC4)cn3)nc2n(C2CCCC2)c1=O [CPD-165]")
"< 30%"
>>> endpoint_value("CC(=O)c1c(C)c2cnc(Nc3ccc(N4CCN(C(=O)CCC(=O)Nc5ccccc5C(=O)Nc5nc(C)c(C)s5)CC4)cn3)nc2n(C2CCCC2)c1=O [CPD-153]")
"< 30%"
>>> endpoint_value("CC(=O)c1c(C)c2cnc(Nc3ccc(N4CCN(CC(=O)NCCOCCOCCOCCOCCOCCC(=O)Nc5ccccc5C(=O)Nc5nc(C)c(C)s5)CC4)cn3)nc2n(C2CCCC2)c1=O [CPD-175]")
"> 80%"
>>> endpoint_value("CC(=O)c1c(C)c2cnc(Nc3ccc(N4CCN(C(=O)CCOCCOCCOCCOCCNc5cccc(C(=O)Nc6nc(C)c(C)s6)c5C)CC4)cn3)nc2n(C2CCCC2)c1=O [CPD-123]")
"50 to 80%"
>>> endpoint_value("CC(=O)c1c(C)c2cnc(Nc3ccc(N4CCN(C(=O)CCOCCNc5ccc(C)c(C(=O)Nc6nc(C)c(C)s6)c5)CC4)cn3)nc2n(C2CCCC2)c1=O [CPD-110]")
"< 30%"
>>> endpoint_value("CC(=O)c1c(C)c2cnc(Nc3ccc(N4CCN(C(=O)CCCCCNc5cccc(C(=O)Nc6nc(C)c(C)s6)c5C)CC4)cn3)nc2n(C2CCCC2)c1=O [CPD-137]")
"< 30%"
